measured.on: HCV NS3-4A serine protease (full-length NS3-4A protein) (Hepatitis C virus genotype 1a (isolate 1) (HCV), UniProt P26664)
Sequence (P26664 1027-1657): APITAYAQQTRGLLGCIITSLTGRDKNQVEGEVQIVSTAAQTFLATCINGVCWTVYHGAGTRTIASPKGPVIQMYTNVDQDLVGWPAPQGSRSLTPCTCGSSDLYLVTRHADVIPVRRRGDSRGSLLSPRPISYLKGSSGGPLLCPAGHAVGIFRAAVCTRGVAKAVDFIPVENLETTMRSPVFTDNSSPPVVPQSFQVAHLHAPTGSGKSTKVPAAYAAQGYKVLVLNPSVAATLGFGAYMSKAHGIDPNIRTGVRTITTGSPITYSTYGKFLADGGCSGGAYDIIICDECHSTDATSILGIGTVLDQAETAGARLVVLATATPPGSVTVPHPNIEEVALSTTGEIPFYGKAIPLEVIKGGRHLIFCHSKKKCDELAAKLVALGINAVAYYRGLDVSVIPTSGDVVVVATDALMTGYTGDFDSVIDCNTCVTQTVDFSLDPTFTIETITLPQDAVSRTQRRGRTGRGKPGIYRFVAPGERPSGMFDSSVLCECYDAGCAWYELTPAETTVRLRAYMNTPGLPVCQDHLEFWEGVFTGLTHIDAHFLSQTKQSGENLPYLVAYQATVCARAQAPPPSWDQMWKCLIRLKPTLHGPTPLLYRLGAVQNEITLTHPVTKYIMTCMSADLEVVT
Sequence (P26664 1658-1711 partner): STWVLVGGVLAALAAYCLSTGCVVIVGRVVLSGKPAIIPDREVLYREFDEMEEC
assay.details: HCV NS3-4A protease assay
condition.details: strain HCV-1, fluorogenic peptide substrate, read-out: Protease assay Ex. 12 IC50
Recorded pIC50 for the following molecules
Remember, pIC50 is on a log scale: it is -log10 of the molar concentration.

[[record]]
molecule = "C=C[C@@H]1C[C@]1(NC(=O)[C@@H]1C[C@@]2(CN1C(=O)[C@@H](NC(=O)[C@@H](NC(=O)[C@@H]1CCCCN1C(C)C)C(C)C)C(C)C)C(C)(C)C21CCC1)C(=O)NS(=O)(=O)N(CC)CC"
experimental_result = 8.10

[[record]]
molecule = "C=C[C@@H]1C[C@]1(NC(=O)[C@@H]1C[C@@]2(CN1C(=O)[C@@H](NC(=O)[C@@H](NC(=O)[C@@H]1CCCCN1C1CCCC1)C(C)(C)C)C(C)(C)C)C(C)(C)C21CCC1)C(=O)NS(=O)(=O)N1CCCC1"
experimental_result = 8.10

[[record]]
molecule = "C=C[C@@H]1C[C@]1(NC(=O)[C@@H]1C[C@@]2(CN1C(=O)[C@@H](NC(=O)[C@@H](NC(=O)c1cnc(C)cn1)C1CCCCC1)C(C)(C)C)C(C)(C)C21CCC1)C(=O)NS(=O)(=O)N1CCCC1"
experimental_result = 7.85


Data request: In one line, give reported pIC50 of the entry "C=C[C@@H]1C[C@]1(NC(=O)[C@@H]1C[C@@]2(CN1C(=O)[C@@H](NC(=O)[C@@H](NC(=O)[C@@H]1CCCCN1C(C)C)C1CCCCC1)C(C)(C)C)C(C)(C)C21CCC1)C(=O)NS(=O)(=O)N(C)CC" .
Data returned: 9.30

Data request: Let me know recorded pIC50 for "C=C[C@@H]1C[C@]1(NC(=O)[C@@H]1C[C@@]2(CN1C(=O)[C@@H](NC(=O)[C@@H](NC(=O)c1cnccn1)C1CCCCC1)C(C)(C)C)C(C)(C)C21CCC1)C(=O)NS(=O)(=O)N(C)CC" , thanks.
Data returned: 9.22

Data request: Entry "C=C[C@@H]1C[C@]1(NC(=O)[C@@H]1C[C@@]2(CN1C(=O)[C@@H](NC(=O)[C@@H](NC(=O)[C@@H]1CCCCN1C(C)C)C1CCCCC1)C(C)(C)C)C(C)(C)C21CCC1)C(=O)NS(=O)(=O)N1CCCC1" needs its pIC50 filled in; supply it.
Data returned: 8.52

Data request: Report pIC50 for "C=C[C@@H]1C[C@]1(NC(=O)[C@@H]1C[C@@]2(CN1C(=O)[C@@H](NC(=O)[C@@H](NC(=O)[C@@H]1CCCCN1C(C)C)C1CCCCC1)C(C)(C)C)C(C)(C)C21CCC1)C(=O)NS(=O)(=O)N(C)OC"
Data returned: 8.85

====

In this section, each of the molecules is paired with its reported IC50.
measured.on: HCV NS3-4A serine protease (full-length NS3-4A protein) (Hepatitis C virus genotype 1a (isolate 1) (HCV), UniProt P26664)
assay.details: HCV NS3-4A protease assay
condition.details: strain HCV-1, fluorogenic peptide substrate, read-out: Protease assay Ex. 12 IC50
Give just the numeric value; nM need not be written.

[[record]]
molecule = "C=C[C@@H]1C[C@]1(NC(=O)[C@@H]1C[C@@]2(CN1C(=O)[C@@H](NC(=O)[C@@H](NC(=O)[C@@H]1CCC(F)(F)CN1C(C)C)C1CCCCC1)C(C)(C)C)C(C)(C)C21CCC1)C(=O)NS(=O)(=O)N1CCCC1 [Compound 105]"
experimental_result = 45

[[record]]
molecule = "C=C[C@@H]1C[C@]1(NC(=O)[C@@H]1C[C@@]2(CN1C(=O)[C@@H](NC(=O)[C@@H](NC(=O)[C@H]1CCCCN1C(C)C)C1CCCCC1)C(C)(C)C)C(C)(C)C21CCC1)C(=O)NS(=O)(=O)N(C)CCC [Compound 114]"
experimental_result = 4.5

[[record]]
molecule = "C=C[C@@H]1C[C@]1(NC(=O)[C@@H]1C[C@@]2(CN1C(=O)[C@@H](NC(=O)[C@@H](NC(=O)c1cnon1)C1CCCCC1)C(C)(C)C)C(C)(C)C21CCC1)C(=O)NS(=O)(=O)N1CCCC1 [Compound 201]"
experimental_result = 35

[[record]]
molecule = "C=C[C@@H]1C[C@]1(NC(=O)[C@@H]1C[C@@]2(CN1C(=O)[C@@H](NC(=O)[C@@H](NC(=O)C1CCN1C(C)(C)C)C1CCCCC1)C(C)(C)C)C(C)(C)C21CCC1)C(=O)NS(=O)(=O)N1CCCC1 (stereo partly drawn) [Compound 40]"
experimental_result = 6

[[record]]
molecule = "C=C[C@@H]1C[C@]1(NC(=O)[C@@H]1C[C@@]2(CN1C(=O)[C@@H](NC(=O)[C@@H](NC(=O)[C@@H]1CCCCN1C(C)C)C1CCCCC1)C(C)(C)C)C(C)(C)C21CCC1)C(=O)NS(=O)(=O)N(C)C [Compound 162]"
experimental_result = 0.9


Next:
Data request: Let me know recorded IC50 for C=C[C@@H]1C[C@]1(NC(=O)[C@@H]1C[C@@]2(CN1C(=O)[C@@H](NC(=O)[C@@H](NC(=O)c1cc3ccccc3n1C)C1CCCCC1)C(C)(C)C)C(C)(C)C21CCC1)C(=O)NS(=O)(=O)N1CCCC1 [Compound 178] , thanks.
Data returned: 80
